- target_of_assay: WNV NS2B-NS3 protease (NS2B-NS3pro) (West Nile virus strain NY-99)
- Construct: cut from WNV genome polyprotein; with Serine protease subunit NS2B (cofactor region)
- Sequence (Q9Q6P4 1423-1469): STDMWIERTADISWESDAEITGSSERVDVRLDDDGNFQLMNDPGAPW
- Sequence (Q9Q6P4 1506-1689): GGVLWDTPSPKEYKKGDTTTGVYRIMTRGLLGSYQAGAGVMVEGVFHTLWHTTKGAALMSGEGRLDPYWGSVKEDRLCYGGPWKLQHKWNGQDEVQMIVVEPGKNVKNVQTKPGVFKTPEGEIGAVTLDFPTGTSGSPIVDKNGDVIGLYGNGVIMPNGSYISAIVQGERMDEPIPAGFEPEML
- assay_info: fluorogenic protease assay, pERTKR-AMC, four-parameter fit, […] concentrations
assay_metric: IC50 (µM)
Give bare numbers, in µM.

(Q) So what's the measured IC50 for this one? C=CCc1ccc(OCc2cn(Cc3ccccc3Br)nn2)c(OC)c1
(A) 6.86

---

- target_of_assay: WNV NS2B-NS3 protease (NS2B-NS3pro) (West Nile virus strain NY-99)
- Construct: cut from WNV genome polyprotein; with Serine protease subunit NS2B (cofactor region)
- assay_info: fluorogenic protease assay, pERTKR-AMC, nonlinear fit in competitive mode
assay_metric: pKi
Give bare numbers, as −log10 of the molar value.

(Q) Give the measured pKi of C=CCc1ccc(OCc2cn(Cc3ccccc3Br)nn2)c(OC)c1 .
(A) 5.51
